System: Vero cells
Format: cell-based
Settings: CCK-8, tested up to 100 mM

- QUERY SMILES: "COC[C@H]1O[C@@H]2O[C@H]3[C@H](OC(C)=O)[C@@H](OC)[C@@H](O[C@H]4[C@H](OC(C)=O)[C@@H](OC)[C@@H](O[C@H]5[C@H](OC(C)=O)[C@@H](OC)[C@@H](O[C@H]6[C@H](OC(C)=O)[C@@H](OC)[C@@H](O[C@H]7[C@H](OC(C)=O)[C@@H](OC)[C@@H](O[C@H]8[C@H](OC(C)=O)[C@@H](OC)[C@@H](O[C@H]1[C@H](OC(C)=O)[C@H]2OC)O[C@@H]8COC)O[C@@H]7COC)O[C@@H]6COC)O[C@@H]5COC)O[C@@H]4COC)O[C@@H]3COC"
  CC50: "≥ 100 mM"
